Hey, just so you know, these numbers are from patent US20210238298A1.

- test target: T1, CTLA4-Fc (Fitzgerald, #30R-CD152) (human, UniProt P16410 38-152)
- T1 construct: Bought; also called human CTLA-4 (Fitzgerald); biotinylated-CTLA4; not shown: Fc part of the bought fusion, not described
- T1 sequence (P16410 38-152 limits assumed): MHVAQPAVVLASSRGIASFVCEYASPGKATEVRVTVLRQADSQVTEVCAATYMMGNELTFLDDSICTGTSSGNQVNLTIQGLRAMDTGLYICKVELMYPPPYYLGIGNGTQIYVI
- assay name: SPR (Biacore), immobilised CTLA4-Fc
observable: koff (s⁻¹)
The figure you give is taken to be in s⁻¹; do not add the unit.

koff reported for this binder CD86 mutant 1044 (ligand, Variant of the CD86 extracellular domain) APLKIQAYFNETADLPCQFANSQNLTLSELVVFWQDQENLVLNEVYLGKEKFDSVSSKYMGRTSFDSDSWTLRLHNLQIKDKGIYQCIIHHKKPTGMIKIHEMSSELSVLA : 0.0094

koff reported for this binder human wild-type CD86 (monomeric soluble extracellular domain) (ligand, also called wild type protein) APLKIQAYFNETADLPCQFANSQNQSLSELVVFWQDQENLVLNEVYLGKEKFDSVHSKYMGRTSFDSDSWTLRLHNLQIKDKGLYQCIIHHKKPTGMIRIHQMNSELSVLA : 0.023

koff reported for this binder CD86 mutant 1041 (ligand, Variant of the CD86 extracellular domain) APLKIQAYLNETADLPCQFANSQNLSLSELVVFWQDQENLVLNEVYLGKEKFDSVDSKYMGRTSFDSDSWTLRLHNLQIKDKGIYQCIIHHKKPTGLVKIHEMNSELSVLA : 0.0084

koff reported for this binder CD86 mutant 1046 (ligand, Variant of the CD86 extracellular domain) APLKIQAYFNETADLPCQFANSQNQSLSELVVFWQDQENLVLNEVYLGKEKFDSVDSKYMGRTSFDSDSWTLRLHNLQIEDKGIYQCIIHHKKPSGMVKIHQMDSELSVLA : 0.008
